Origin of the recorded values: patent US20240209093A1

- target.of.assay: T1, human PD-L1-his (human, UniProt Q9NZQ7 19-238)
- T1 construct: also called hPD-L1-his; human His-PD-L1
- assay.text: SPR, Biacore, full kinetics, antigen 100-1.5625 nM
recorded.endpoint: Kd (nM)

binder | reported
ALP-Tan-3p-112 (chimeric) (antibody, V domains shown, not shown: a dimerising Fc or GST; small tags and cut ends, Called chimeric) VH: QVQLVESGGGLVQPGGSLRLSCAASGSIFSSGTNFSDSKIDWYRQAPGKQRDWIAGIFSTGSTIYEDSVKGRFAISRDNAKNMGYLQMNSLKPEDTAVYYCRVIGRGILAWGQGTQVTVSS | 0.264
112-VHH3-PTM (VHH, Humanized) VHH: EVQLVESGGGLVQPGGSLRLSCAASGSIFSSGTQFSDSKIDWYRQAPGKQREWVSGIFSTGSTIYEDSVKGRFTISRDNAKNSLYLQMNSLRAEDTAVYYCRVIGRGILAWGQGTLVTVSS | 2.4
93-VH-3 (VHH, Humanized) VHH: EVQLVESGGGLVQPGGSLRLSCAASGFTFTFRHYVMGWFRQAPGKGLEFVAAISWSGSGSYYADSVKGRFTISRDNSKNTLYLQMNSLRAEDTAVYYCAKDMTTRMSQASREYDYWGQGTLVTVSS | 2.36
93-VH-4 (VHH, Humanized) VHH: EVQLVESGGGLVQPGGSLRLSCAASGFTFTFRHYVMGWFRQAPGKGLEFVAAISWSGSGSYYADSVKGRFTISRDNSKNTVYLQMNSLRAEDTAVYYCAADMTTRMSQASREYDYWGQGTLVTVSS | 1.82
